Origin of values: paper PMC6891286

targetDesc: STK16 (Homo sapiens)
Sequence (O75716 whole entry): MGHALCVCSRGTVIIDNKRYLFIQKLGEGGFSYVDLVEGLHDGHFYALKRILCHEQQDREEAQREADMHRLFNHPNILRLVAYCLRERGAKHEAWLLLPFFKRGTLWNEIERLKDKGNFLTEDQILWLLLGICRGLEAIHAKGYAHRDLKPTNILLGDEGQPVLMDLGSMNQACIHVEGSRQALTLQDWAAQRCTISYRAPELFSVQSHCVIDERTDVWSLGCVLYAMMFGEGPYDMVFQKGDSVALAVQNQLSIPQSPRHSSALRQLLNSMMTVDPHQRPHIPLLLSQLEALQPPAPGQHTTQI
experimentDescription: NAK family TR-FRET binding displacement assay
cond: NAK family FRET screening; read-out: Binding displacement assay STK16 Ki
observedProperty: Ki (µM)
Supply the numeric figure in µM, leaving out any unit text.

Here is how some compounds turned out for Ki.
* O=c1[nH]c2ccc(Nc3ccnc4ccc(Br)cc34)cc2o1 | 8.8
* Cn1ncc2c(Nc3ccnc4ccc(Br)cc34)cccc21 | 28
* Fc1ccc(Nc2ccnc3ccc(Br)cc23)c(F)c1 | 11
* Brc1ccc2nccc(Nc3cccc4nsnc34)c2c1 | 22
* Brc1ccc2nccc(Nc3cccc4nc[nH]c34)c2c1 | 26
* Brc1ccc2nccc(Nc3ccc4[nH]ncc4c3)c2c1 | 5.7
* Fc1ccc(F)c(Nc2ccnc3ccc(Br)cc23)c1 | 6.2
* Brc1ccc2nccc(Nc3cccc4[nH]ncc34)c2c1 | 19

Now consider the entry below.
Supply measured Ki of "O=C1NCc2ccc(Nc3ccnc4ccc(Br)cc34)cc21" in your reply.
2.7
